assay setup: in acetic acid, 313.15 K
readout label: solubility (mole fraction)
Provide a numeric answer; units are not to be included.

Input: Give recorded solubility (mole fraction). `CC(=O)Nc1ccc(C(=O)O)cc1`
Output: 0.007

---

assay setup: in sec-butanol, 313.15 K
readout label: solubility (mole fraction)

Input: For `CC(=O)Nc1ccc(C(=O)O)cc1` , write its solubility (mole fraction).
Output: 0.0122

---

assay setup: in acetonitrile, 308.15 K
readout label: solubility (mole fraction)
Enter a number only.

Input: Respond only with solubility (mole fraction) recorded for `CC(=O)Nc1ccc(C(=O)O)cc1`
Output: 0.000803

---

assay setup: in n-butanol, 318.15 K
readout label: solubility (mole fraction)
Answer with a number only.

Input: Query solubility (mole fraction) for `CC(=O)Nc1ccc(C(=O)O)cc1`
Output: 0.0122

Cited source for all entries: BigSolDB 2.1
